So I've got a bunch of compounds here, and I need their CMK %inh values.
System: CMK
Design: species or system AML cell lines (8); Primary HTS, single concentration about 10 uM, Cell Titer Glo viability; log10 luminescence, per cent inhibition relative to cycloheximide control
conditions: 72 h, relative to cycloheximide control, log10 luminescence; inhibitor
Counter-ions that a name gives are not always drawn.
The figure you give is taken to be in %; do not add the unit.

For COC(=O)C1=C(C)NC(C)=C(C(=O)OC(C)C)C1c1cccc2nonc12 (stereo not drawn) the compound record lists CMK %inh as -2.127

For `O=C1NC(=NCCc2ccc(F)cc2)S/C1=C\c1ccc2ncccc2c1` the compound record lists CMK %inh as 4.249

For `COc1cccc(-c2c[nH]c3c(N/N=C/c4ccncc4)ncnc23)c1` the compound record lists CMK %inh as 96.73

For `CCOC(=O)[C@H](CCc1ccccc1)N[C@@H](C)C(=O)N1[C@H](C(=O)O)C[C@H]2CCCC[C@@H]21` the compound record lists CMK %inh as -2.955

For `c1cc(-c2cnn3nc(N4CCOCC4)ccc23)nc(NC2CC2)n1` the compound record lists CMK %inh as -4.251

For `Nc1nc(-c2ccc3c(c2)C(=Cc2cc(Br)c(O)c(Br)c2)C(=O)N3)cs1` the compound record lists CMK %inh as -5.127

For `O=C1NC(=NCc2ccccc2Cl)S/C1=C\c1ccc2ncccc2c1` the compound record lists CMK %inh as -0.8248

For `Nc1c(C(=O)c2ccccc2)cnn1-c1ccc(F)cc1` the compound record lists CMK %inh as 1.79

For `Cc1nc2sc3c(N)ncnc3c2c(C)c1C` the compound record lists CMK %inh as -9.059

For `Cn1cc(C2=C(c3cn(C)c4ccc(N)cc34)C(=O)NC2=O)c2ccccc21` the compound record lists CMK %inh as 43.44

For CC(C)[N+](C)(CCC(C(N)=O)(c1ccccc1)c1ccccc1)C(C)C [SJ000285636-4, ISOPROPAMIDE IODIDE] the compound record lists CMK %inh as -6.961

For `Oc1cccc(-c2nc(-c3ccccc3)[nH]c2-c2ccncc2)c1` the compound record lists CMK %inh as 4.668

For `COC(=O)c1sc(-n2cnc3cc(OC)c(OC)cc32)cc1OCc1ccccc1C(F)(F)F` the compound record lists CMK %inh as 0.3974

For `COc1cc2c(cc1Nc1nc(Nc3ccsc3C(N)=O)c3cc[nH]c3n1)N(C(=O)CN(C)C)CCC2(C)C` the compound record lists CMK %inh as 81.26

For `COc1cc(Nc2ncc3c(C)nc(-c4cccc(Oc5ccccc5)c4)n3n2)cc(OC)c1OC` the compound record lists CMK %inh as 25.77

For `COC(=O)Nc1nc2ccc(S(=O)(=O)c3ccc(NC(=O)Nc4cc(C(F)(F)F)ccc4F)cc3)cc2[nH]1` the compound record lists CMK %inh as 2.078

For CN(C)CCC=C1c2ccccc2C=Cc2ccccc21 [SJ000285960-7, CYCLOBENZAPRINE HYDROCHLORIDE] the compound record lists CMK %inh as 3.38

For `Cn1cc(C2=C(c3cccnc3)C(=O)NC2=O)c2ccccc21` the compound record lists CMK %inh as 8.732

For `CCCCC[C@](C)(O)/C=C/[C@@H]1[C@@H](C/C=C\CCCC(=O)O)[C@@H](O)C[C@H]1O` the compound record lists CMK %inh as -7.865

For COc1ccc(Cl)cc1C(=O)NCCc1ccc(S(=O)(=O)NC(=O)NC2CCCCC2)cc1 [SJ000285391-7, GLYBURIDE | GLIBENCLAMIDE] the compound record lists CMK %inh as -6.568

For `CN(C)CC#Cc1cccc(C(=O)c2cnn(-c3ccc(F)cc3)c2N)c1` the compound record lists CMK %inh as 1.135

For `Nc1c(C(=O)c2cccc(C#CCN3CCOCC3)c2)cnn1-c1ccc(F)cc1` the compound record lists CMK %inh as 37.5

For `CN(C)CCNC(=O)Nc1ccc(N(C)c2ccnc(Nc3ccc(CS(C)(=O)=O)cc3)n2)cc1` the compound record lists CMK %inh as 26.79

For `Nc1c(C(=O)c2ccc(-c3cccnc3)cc2)cnn1-c1ccc(F)cc1` the compound record lists CMK %inh as -0.6442

For `COC(=O)Nc1nc2cc(Oc3ccc(NC(=O)Nc4ccccc4)cc3)ccc2[nH]1` the compound record lists CMK %inh as 109.7

For `Oc1ncnc2[nH]ncc12` the compound record lists CMK %inh as -2.837

For `Nc1[nH]nc2nc(-c3cccs3)cc(C(F)(F)F)c12` the compound record lists CMK %inh as -1.06

For `COC(=O)/C=C/c1cccc(N(Cc2ccc(-c3ccc(N(C)C)cc3)cc2)C(=O)C2CCCCC2)c1` the compound record lists CMK %inh as -0.2535

For `O=C1Nc2ccc(-c3cccnc3)cc2C1=Cc1cc(Br)c(O)c(Br)c1` the compound record lists CMK %inh as 0.4308

For `CCN(CC)Cc1ccc(Nc2nccc(-c3cnn4ncccc34)n2)cc1` the compound record lists CMK %inh as 90.23
